target: UniProtKB P35408; experiment: hEP4 cAMP assay (BT549 breast cancer cells, HTRF cAMP); assay type: cell-based; conditions: antagonistic activity, PGE2 6 nM
Sequence (P35408 whole entry): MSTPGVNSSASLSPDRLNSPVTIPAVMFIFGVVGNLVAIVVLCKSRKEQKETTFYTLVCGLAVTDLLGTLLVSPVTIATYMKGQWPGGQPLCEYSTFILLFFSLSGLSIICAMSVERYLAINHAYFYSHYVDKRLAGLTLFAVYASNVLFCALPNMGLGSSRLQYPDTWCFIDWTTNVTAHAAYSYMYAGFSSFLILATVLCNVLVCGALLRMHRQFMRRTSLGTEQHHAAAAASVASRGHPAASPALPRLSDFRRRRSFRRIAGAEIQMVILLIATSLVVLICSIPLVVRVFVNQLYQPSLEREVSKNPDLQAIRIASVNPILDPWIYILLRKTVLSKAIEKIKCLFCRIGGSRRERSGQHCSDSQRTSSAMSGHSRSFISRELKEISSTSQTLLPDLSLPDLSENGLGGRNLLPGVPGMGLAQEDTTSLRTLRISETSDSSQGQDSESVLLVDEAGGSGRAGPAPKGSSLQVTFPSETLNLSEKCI
MEASUREMENT_LABEL: pIC50
Give only the number. pIC50 is defined as minus log10 of concentration in molar units.

Would you please look over these solved cases?
CCOc1cc(-c2cc(NCCc3c(F)cc4ncccc4c3F)ncn2)ccc1C(=O)O :: 6.19
CCOc1cc(-c2cc(NCCc3ccc4ncccc4c3F)ncn2)sc1C(=O)O :: 7.42
Cc1c(Cl)c(CCNc2cc(-c3ccc(C(=O)O)c(OC4CCC4)c3)ncn2)cc2cccnc12 :: 6.37
CCOc1cc(-c2cc(NCCc3c(F)cc4ccccc4c3F)ncn2)sc1C(=O)O :: 8.52
COc1cc2sccc2cc1CCNc1cc(-c2ccc(C(=O)O)cc2)ncn1 :: 6.32
N#Cc1csc2ccc(CCNc3cc(-c4ccc(C(=O)O)c(OC5CCC5)c4)ncn3)cc12 :: 6.34

Qu. // pIC50 lookup, key: Cc1c(CCNc2cc(-c3ccc(C(=O)O)c(OCCO)c3)ncn2)ccc2ccccc12
Ans. 6.49

Qu. // pIC50 lookup, key: CCOc1cc(-c2cc(NCCc3c(F)cc4ccccc4c3F)ncn2)ccc1CC(=O)O
Ans. 7.12

Qu. // pIC50 lookup, key: CCOc1cc(-c2cc(NCCc3cc(F)c4c(c3)OCCO4)ncn2)sc1C(=O)O
Ans. 7.74
